# testedTarget: T1, human MSLN-R3 protein (human, UniProt Q13421 487-598)
# T1 construct: also called hMSLN-R3
# T1 sequence (Q13421 495-606, form in doubt): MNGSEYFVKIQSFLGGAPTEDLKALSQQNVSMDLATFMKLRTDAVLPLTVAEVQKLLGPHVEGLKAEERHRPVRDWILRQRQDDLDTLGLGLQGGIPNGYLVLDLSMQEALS
# experimentSummary: ELISA on coated antigen, antibody 0.001 nM
Recorded measurements of OD450, one per entry
Supply the numeric figure in OD450, leaving out any unit text.

Q: So what's the measured OD450 for this one? F7.44.20-VL-VH (scFv, not shown: small tags and cut ends, also called S009-F7.44.20 parental variable regions, VL-VH order) scFv: QIVLTQSPALMSASPGEKVTLTCSASSSVISSYLSWYQQKPGSSPKLLIYRTSNLASGVPARFSGSGSGTSYSLTISSMEAEDAASYFCHQWSSFPYTFGGGTKLEIKGGGGSGGGGSGGGGSEVQLQQSGPELVKPGASVKIPCKASGYTFTDYNMDWVKQSHGKSLEWIGDINPSTGGTIYNQKFNGKATLTEDKSASTVYMEFRSLTSDDTAVYYCARRRIGTGYFDVWGTGTTVTVSS
A: 0.04

Q: So what's the measured OD450 for this one? F7.44.20-H16 (scFv, not shown: small tags and cut ends, also called S009-F7.44.20 humanized antibody VH2a + VL4) scFv: EVQLVQSGAEVKKPGASVKVSCKASGYTFTDYNMDWVRQAPGQGLEWMGDINPSTGGTIYNQKFSGRVTMTEDKSASTVYMELSSLRSEDTAVYYCARRRIGTGYFDVWGQGTTVTVSSGGGGSGGGGSGGGGSEIVLTQSPATLSLSPGERATLSCSASSSVISSYLSWYQQKPGSSPRLLIYRTSNLASGIPARFSGSGSGTDYTLTISSLEPEDFAVYYCHQWSSFPYTFGGGTKVEIK
A: 0.04

Q: So what's the measured OD450 for this one? F7.44.20-H2 (scFv, not shown: small tags and cut ends, also called S009-F7.44.20 humanized antibody VH1 + VL2) scFv: EVQLVQSGAEVKKPGASVKVSCKASGYTFTDYNMDWVRQAPGQGLEWMGDINPSTGGTIYNQKFNGRVTMTEDKSTSTVYMELSSLRSEDTAVYYCARRRIGTGYFDVWGQGTTVTVSSGGGGSGGGGSGGGGSEIVLTQSPDFQSVTPKEKVTITCSASSSVISSYLSWYQQKPDQSPKLLIYRTSNLASGVPSRFSGSGSGTDYTLTINSLEAEDAATYYCHQWSSFPYTFGGGTKVEIK
A: 0.05

Q: So what's the measured OD450 for this one? Tab110 (scFv, not shown: small tags and cut ends, also called YP218 VH-(G4S)3-VL-his antibody; positive control) scFv: QQQLEESGGGLVKPEGSLTLTCKASGFDLGFYFYACWVRQAPGKGLEWIACIYTAGSGSTYYASWAKGRFTISKASSTTVTLQMTSLAAADTATYFCARSTANTRSTYYLNLWGPGTLVTVSSGGGGSGGGGSGGGGSDVVMTQTPASVSEPVGGTVTIKCQASQRISSYLSWYQQKPGQRPKLLIFGASTLASGVPSRFKGSGSGTEYTLTISDLECADAATYYCQSYAYFDSNNWHAFGGGTEVVV
A: 0.04

Q: So what's the measured OD450 for this one? F7.44.20-H1 (scFv, not shown: small tags and cut ends, also called S009-F7.44.20 humanized antibody VH1 + VL1) scFv: EVQLVQSGAEVKKPGASVKVSCKASGYTFTDYNMDWVRQAPGQGLEWMGDINPSTGGTIYNQKFNGRVTMTEDKSTSTVYMELSSLRSEDTAVYYCARRRIGTGYFDVWGQGTTVTVSSGGGGSGGGGSGGGGSEIVLTQSPDFQSVTPKEKVTITCSASSSVISSYLSWYQQKPDQSPKLLIYRTSNLASGVPSRFSGSGSGTDFTLTINSLEAEDAATYYCHQWSSFPYTFGGGTKVEIK
A: 0.05
